- measurement.target: Human SST5 somatostatin receptor (SSTR5) (Homo sapiens)
- Construct: expressed in transfected cells; host or cells: HEK-293 EBNA
- Sequence (P35346 whole entry): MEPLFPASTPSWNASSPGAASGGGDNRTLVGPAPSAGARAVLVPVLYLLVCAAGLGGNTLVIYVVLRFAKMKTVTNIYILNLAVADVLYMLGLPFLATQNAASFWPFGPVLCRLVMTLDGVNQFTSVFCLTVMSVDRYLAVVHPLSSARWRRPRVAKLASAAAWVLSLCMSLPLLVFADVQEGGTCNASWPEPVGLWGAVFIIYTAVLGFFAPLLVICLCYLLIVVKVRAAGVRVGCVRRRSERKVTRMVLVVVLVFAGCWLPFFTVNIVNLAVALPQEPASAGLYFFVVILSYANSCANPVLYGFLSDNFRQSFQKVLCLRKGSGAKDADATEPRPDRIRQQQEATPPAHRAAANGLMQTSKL
- test.summary: Filter plate assay for SST5 receptor, displacement of [125I]SST-14
- Type: binding
- measurement.setup: 10 uM
quantity: SSTR5 Inhib 10 uM % (inhibition of binding of SST-14 to SSTR5) (%)

- COC[C@H]1OC(OCc2ccc(-c3ccccc3)cc2)[C@H](NC(=O)CCCN)[C@@H](OCc2ccc(-c3ccccc3)cc2)[C@@H]1O (stereo partly drawn) [Compound 80]: 88
- CSC1O[C@H](COCc2ccc(Cl)cc2)[C@@H](O)[C@@H](OCc2ccc3ccccc3c2)[C@H]1NC(=O)CCCNC(=N)N (stereo partly drawn): 92
- COC1C(O)C(COCc2ccc3ccccc3c2)OC(OCc2ccc(Cl)cc2)C1NC(=O)CNC(=N)N (stereo not drawn): 71
